Test: Nuclear factor erythroid 2-related factor 2/antioxidant responsive element (Nrf2/ARE) small molecule agonists: luciferase reporter gene qHTS assay in human keratinocytes (AID 1919969); also: nearly all actives have a fitted effect of over 35% in size
Conditions: KeratinoSens HaCaT ARE-luciferase, luminescence, 24 h; series mostly up to 92.4 µM
Excerpt: National Center for Advancing Translational Sciences [NCATS] Division of Preclinical Innovation [DPI] U.S. Environmental Protection Agency [EPA] National Institutes of Environmental Health Sciences [NIEHS] National Toxicology Program [NTP] […] Oxidative stress has been implicated in the pathogenesis of a variety of diseases ranging from cancer to neurodegeneration. […] The activation of the report gene under culture conditions can be detected by ONE-Glo Luciferase Assay System (Promega, Madison, WI). […]
Records with an inconclusive call do not appear. The source made the active and inactive calls. Calls follow the shape of the full dose curve.
Classes used: yes (1) = active, no (0) = inactive

compound	groupLabel
CC(C)OC(=O)Cc1ccccc1	no (0)
CN(C)[C@@H]1C(=O)C(C(N)=O)=C(O)[C@@]2(O)C(=O)C3=C(O)c4c(O)cccc4[C@@](C)(O)[C@H]3[C@H](O)[C@@H]12	no (0)
CCCCC1C(=O)NC(=O)N(C2CCCCC2)C1=O (stereo not given)	no (0)
Cc1cc(Cl)ccc1OC(C)C(=O)O (stereo not given)	no (0)
Oc1ccc(Cl)cc1Cl	no (0)
CCCCCCCCCCCCCCCCn1cc[n+](C)c1	no (0)
c1ccc2c(c1)sc1ccccc12	no (0)
CCC/C=N/O	no (0)
Clc1ccccc1Cl	no (0)
CC(C)COC(=O)c1ccccc1C(=O)OCC(C)C	no (0)
COCCC#N	no (0)
C=CCN=C=S	no (0)
COP(=S)(OC)Oc1cc(Cl)c(Cl)cc1Cl	yes (1)
CCOC(=O)CC(SP(=S)(OC)OC)C(=O)OCC (stereo not given)	yes (1)
CCC[N+](=O)[O-]	no (0)
CCC1(CC)C(=O)C=CNC1=O	no (0)
CCN(C)N=O	no (0)
CCOC(=O)C1(c2ccccc2)CCN(CCC(C#N)(c2ccccc2)c2ccccc2)CC1	no (0)
CCN(CC)C(=S)S	no (0)
Cc1ccc(Cl)c(O)c1	no (0)
CC(C)(c1ccccc1)c1cc(-n2nc3ccccc3n2)c(O)c(C(C)(C)c2ccccc2)c1	no (0)
C=C(C)CCl	no (0)
CC(C)Nc1nc(Cl)nc(NC(C)C)n1	no (0)
NC(=O)O	no (0)
NC(=O)CN1CCCC1=O	no (0)
CC(C)CCON=O	no (0)
C#C[C@]1(O)CC[C@H]2[C@@H]3CCC4=CC(=O)CC[C@]4(C)[C@H]3CC[C@@]21C	no (0)
OCCCl	no (0)
O=[N+]([O-])c1ccc(Cl)cc1	no (0)
CNC(=O)O/N=C/C(C)(C)SC	no (0)
CCCCCCCCC(=O)NCc1ccc(O)c(OC)c1	no (0)
CCCCCCCCCCCC#N	no (0)
c1ccc2c(c1)oc1ccccc12	no (0)
Nc1ccc([N+](=O)[O-])cc1N	yes (1)
[O]=[Cr][O][Cr]=[O]	no (0)
O=C(O)c1nn(Cc2ccc(Cl)cc2Cl)c2ccccc12	no (0)
C[N+](=O)[O-]	no (0)
O=C(Cl)C(Cl)Cl	no (0)
CCOc1cc(C=O)ccc1O	no (0)
C[Si](Cn1cncn1)(c1ccc(F)cc1)c1ccc(F)cc1	no (0)
Cc1cc(Cl)ccc1OCCCC(=O)O	no (0)
CCOP(=S)(OCC)O/N=C(\C#N)c1ccccc1	no (0)
C=COCCCl	no (0)
CCOP(=S)(OCC)Oc1ccc([N+](=O)[O-])cc1	no (0)
O=C(Cl)c1ccccc1	no (0)
CCCCCCCCCCCCCCn1cc[n+](C)c1	no (0)
C#CCN(C)[C@H](C)Cc1ccccc1	no (0)
O=[N+]([O-])c1ccc(Cl)c([N+](=O)[O-])c1	yes (1)
Fc1cc(Br)ccc1CBr	no (0)
O=[N+]([O-])c1ccccc1	no (0)
Nc1ccccc1C(=O)O	no (0)
Nc1ccc(Cl)c(Cl)c1	no (0)
CCCCCCCCCCCC(=O)O	no (0)
O=NN1CCCC1	no (0)
CC(C)(C)CC(C)(C)c1ccc(O)cc1	no (0)
CCOP(OCC)OCC	no (0)
[P]#[In]	no (0)
CC(Br)C(=O)O (stereo not given)	no (0)
O=C(O)C(F)(F)C(F)(F)C(F)(F)C(F)(F)C(F)(F)C(F)(F)F	no (0)
O=C(Cc1ccccc1)c1ccccc1	no (0)
